Origin of the recorded values: PubChem BioAssay

test_method_notes: inhibitors of TNFa-induced NFkB p65 translocation, primary screen, imaging, HUVEC, MLSMR starter and 10KST1 sets (AID 438);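 further: compound added about 3h40 before a 20 min TNFalpha stimulation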
measurement_setup: HUVEC TNFa-induced p65 nuclear translocation; measured here: nuclei count (cytotoxicity indicator), at 2.08 µM
Would you mind labelling by cell count? At or over 500 is Condition met, under is Condition not met.

Use the examples below as a reference point.
INSERT INTO assay_data (compound, group_label) VALUES
  ('C/C(CC1(O)C(=O)N(Cc2ccccc2)c2ccccc21)=N\O (configuration not stated)', 'Condition met'),
  ('CCCCC1CC1C(=O)Nc1ccc(OC)c(OC)c1 (configuration not stated)', 'Condition not met');

Is the recorded value of cell count equal to or greater than 500 for this compound? CNCCCC1c2ccccc2C=Cc2ccccc21 Condition met

Is the recorded value of cell count equal to or greater than 500 for this compound? c1ccc(CN2CCN(c3nc(-c4ccccn4)nc4ccccc34)CC2)cc1 Condition not met

Is the recorded value of cell count equal to or greater than 500 for this compound? CCC1(c2ccccc2)C(=O)NCNC1=O Condition met

Is the recorded value of cell count equal to or greater than 500 for this compound? CN(C)S(=O)(=O)Nc1ccc(NS(=O)(=O)N(C)C)c(S(=O)(=O)c2ccccc2)c1 Condition not met

Is the recorded value of cell count equal to or greater than 500 for this compound? CC1CCc2cc(F)cc3c(O)c(C(=O)Nc4cnccn4)c(=O)n1c23 (configuration not stated) Condition not met

Is the recorded value of cell count equal to or greater than 500 for this compound? COc1ccccc1N1CCN(CCCCOc2ccc(F)cc2)CC1 Condition not met

Is the recorded value of cell count equal to or greater than 500 for this compound? COc1ccc(CCNc2nc3c(c(=O)n(C)c(=O)n3C)n2C)cc1OC Condition met

Is the recorded value of cell count equal to or greater than 500 for this compound? CC1CN(C2CCN(S(=O)(=O)c3ccccc3)CC2)CC(C)O1 (configuration not stated) Condition not met

Is the recorded value of cell count equal to or greater than 500 for this compound? Cc1c(NC(=O)c2coc(=O)c(Br)c2)c(=O)n(-c2ccccc2)n1C Condition met

Is the recorded value of cell count equal to or greater than 500 for this compound? CCCCCCCC(=O)OCC(=O)[C@@]1(O)CC[C@H]2[C@@H]3CCC4=CC(=O)CC[C@]4(C)[C@H]3[C@@H](O)C[C@@]21C Condition met

Is the recorded value of cell count equal to or greater than 500 for this compound? Cc1cc(=O)oc(C)c1C(=O)NCCN1CCOCC1 Condition not met

Is the recorded value of cell count equal to or greater than 500 for this compound? COc1ccc(Oc2nc3c(c(=O)n(C)c(=O)n3C)n2Cc2cccc(OC)c2)cc1 Condition not met

Is the recorded value of cell count equal to or greater than 500 for this compound? Cc1ccc2[nH]c3c(c2c1)CN(C(=O)CN1CCCc2ccccc21)CC3 Condition met

Is the recorded value of cell count equal to or greater than 500 for this compound? CCc1cccc(C)c1N(C(=O)Cn1c(=O)[nH]c2ccccc21)C(C)COC (configuration not stated) Condition not met

Is the recorded value of cell count equal to or greater than 500 for this compound? Cc1ccc(N2C(=O)C3ON(c4ccccc4)C(c4ccncc4)C3C2=O)cc1 (configuration not stated) Condition not met

Is the recorded value of cell count equal to or greater than 500 for this compound? CSc1nc(Oc2ccc(=O)[nH]n2)nc(N(C)C)n1 Condition met

Is the recorded value of cell count equal to or greater than 500 for this compound? c1cc(-c2nnc3sc(C4CCCCC4)nn23)ccn1 Condition met

Is the recorded value of cell count equal to or greater than 500 for this compound? COc1nc(N(C)S(=O)(=O)c2ccc(C)cc2)nc(C)c1Cl Condition met

Is the recorded value of cell count equal to or greater than 500 for this compound? Cc1cccc(N(CC(O)CN(C)C)S(=O)(=O)c2ccccc2)c1 (configuration not stated) Condition met

---

assayed_target: Voltage-gated potassium channel subunit beta-2 (Rattus norvegicus) (UniProt P62483)
Sequence (P62483 whole entry, looked up): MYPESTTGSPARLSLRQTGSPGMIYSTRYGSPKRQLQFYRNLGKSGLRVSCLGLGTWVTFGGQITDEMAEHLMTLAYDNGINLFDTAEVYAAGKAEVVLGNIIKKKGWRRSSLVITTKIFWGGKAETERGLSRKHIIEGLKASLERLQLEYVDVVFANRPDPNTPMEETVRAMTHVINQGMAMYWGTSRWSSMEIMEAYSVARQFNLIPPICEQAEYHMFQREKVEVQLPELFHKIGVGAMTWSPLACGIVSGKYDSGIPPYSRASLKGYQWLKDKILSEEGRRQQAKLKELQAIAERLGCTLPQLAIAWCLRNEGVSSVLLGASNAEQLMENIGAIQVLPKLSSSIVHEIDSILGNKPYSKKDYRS
test_method_notes: KvBeta positive modulators, primary screen, biochemical, NADPH fluorescence (AID 623);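 further: fluorescence intensity change per second fitted from 20 to 320 s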
measurement_setup: Recombinant KvBeta, NADPH fluorescence decrease slope, 10 min; at 10 µM; stronger effect = lower value
Listed next: entries and their corresponding NADPH fluorescence slope.
Lab note: record just the number, no unit beside it.

Worked set:
INSERT INTO measurements (compound, assayed_target, measured_result) VALUES
  ('CC1(C)Cc2c(sc3c2C2=NCCN2C=N3)CS1', 'Voltage-gated potassium channel subunit beta-2 (Rattus norvegicus) (UniProt P62483)', -0.000119),
  ('O=C(C1CC1(c1ccccc1)c1ccccc1)N1CCOCC1 (stereo unspecified)', 'Voltage-gated potassium channel subunit beta-2 (Rattus norvegicus) (UniProt P62483)', '-6.1e-05'),
  ('Oc1ccc(C=Nc2ccc3ncccc3c2)c(O)c1', 'Voltage-gated potassium channel subunit beta-2 (Rattus norvegicus) (UniProt P62483)', '-3.5e-05'),
  ('C=CCNc1nc(-c2cccc(OC)c2O)nc2ccccc12', 'Voltage-gated potassium channel subunit beta-2 (Rattus norvegicus) (UniProt P62483)', -0.000104),
  ('CC1(C)SC2[C@H](NC(=O)C(NC(=O)N3CCNC3=O)c3ccccc3)C(=O)N2C1C(=O)O (stereo partly specified)', 'Voltage-gated potassium channel subunit beta-2 (Rattus norvegicus) (UniProt P62483)', '-5.2e-05');

Moving on to another compound below.
Entry COc1ccc(OC)c(C2C(C(=O)c3ccco3)=C(O)C(=O)N2CCCN2CCOCC2)c1 (stereo unspecified) : reported NADPH fluorescence slope = ? -3.6e-05

---

assayed_target: Solute carrier family 12 member 5 (Homo sapiens)
test_method_notes: KCC2 inhibitors and activators, ouabain retest, confirmation, HEK-KCC2 cells (AID 1717);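 further: slope of initial-normalized fluorescence between seconds 10 and 20 after thallium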
measurement_setup: HEK293-KCC2, thallium flux FluoZin2 fluorescence, at 10 µM, bidirectional: low = inhibitor, high = activator
The list shows a part of the results. Records with an inconclusive call do not appear. Calls of active or inactive are those of the source.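 How the source made its calls: active means thallium flux slope beyond 3 SD from same-plate DMSO control mean in most replicates, usually higher, sometimes lower; inconclusive means repeat tests gave conflicting results; inactive means no significant difference from controls in most replicates.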
// classify into 1.0 (active), 0.0 (inactive)

INSERT INTO measurements (compound, assayed_target, group_label) VALUES
  ('Brc1ccc(C2=CC(c3ccco3)n3ncnc3N2)cc1 (stereo not given)', 'Solute carrier family 12 member 5 (Homo sapiens)', 1.0),
  ('O=C(Cc1csc(Nc2nc(=S)[nH]c3ccccc23)n1)NCCCN1CCN(c2cccc(Cl)c2)CC1', 'Solute carrier family 12 member 5 (Homo sapiens)', 1.0),
  ('COc1ccc(C(=O)NN(C)c2nc(-c3ccccc3)cc(C)c2S(C)(=O)=O)cc1', 'Solute carrier family 12 member 5 (Homo sapiens)', 0.0),
  ('Cn1c(CCCOc2ccc(Cl)cc2Cl)n[nH]c1=S', 'Solute carrier family 12 member 5 (Homo sapiens)', 1.0);

What outcome does the record of this test show for O=C(Nc1nnc(-c2ccccc2)o1)c1cc(-c2cccs2)nc2ccccc12 ? 1.0

What outcome does the record of this test show for COc1ccc(C(=O)NC(=S)NNC(=O)c2c(-c3ccccc3)noc2C)cc1 ? 1.0

---

Listed next: entries and their corresponding z-score.
test_method_notes: DUSP6 inhibitors restoring Erk phosphorylation by chemical complementation, primary imaging in DUSP6-transfected HeLa (AID 609)
measurement_setup: HeLa MKP-3 transfected, phospho-Erk imaging KS statistic; measured here: nuclear c-Myc green intensity z-score; at 10 µM; cells stimulated with TPA for 15 min
Lab note: record just the number, no unit beside it.

Worked set:
INSERT INTO results (compound, measured_result) VALUES
  ('CCN(CC)CCNc1nc(-c2ccco2)c2c(c1C#N)CC(C)(C)OC2', 0.195),
  ('Nc1nnnn1CC(=O)OCc1cccc(Br)c1', -0.848),
  ('CN=c1sc2ccccc2n1CC(O)COc1ccccc1 (stereo unspecified)', 0.37),
  ('CC(C)c1nc2n[nH]c(N)c2c2c1CCC2', -1.06),
  ('Cc1c(-c2cccs2)[n+](=O)c2c(n1[O-])CCCC2', -0.562),
  ('CCCCC[C@H](O)/C=C/C1=C(CCCCCCC(=O)O)C(=O)CC1', -0.541);

Entry CN1CCc2c(sc3c2c(=O)n(-c2ccccc2)c2nnc(SCc4ccccc4)n32)C1 : reported z-score = ? -2.08

Entry CC(=O)Nc1ccc(S(=O)(=O)Nc2nc3n(n2)C(c2ccccc2)CC(=O)N3)cc1 (stereo unspecified) : reported z-score = ? -1.01

Entry COc1cccc2c1C(=O)c1c(O)c3c(c(O)c1C2=O)C[C@@](O)(C(=O)CO)C[C@@H]3O[C@H]1C[C@H](N)[C@H](O)[C@H](C)O1 : reported z-score = ? 6.47

Entry O=C(O)c1nsc(Cl)c1Cl : reported z-score = ? -1.86

Entry CN(C)CCC=C1c2ccccc2CCc2ccccc21 : reported z-score = ? -0.494
